# runDescription: clinical
# runParameters: human, in vivo, po, Tmax
property: Tmax

Reported Tmax ( CCN(c1cc(-c2ccc(CN3CCOCC3)cc2)cc(C(=O)NCc2c(C)cc(C)[nH]c2=O)c1C)C1CCOCC1 ) = 1 to 2 h

====

# runDescription: clinical
# runParameters: human, in vivo, 800 mg, t1/2
# Procedure: Blood samples for PK and skin biopsies for PD analysis were collected. PD samples were stained with H3K27me3 specific antibody and percent change from baseline in H3K27Me3 positive cells was determined. PK/PD relationship was analyzed. Tumor assessments were performed every 8 weeks. Doses administered were 100 mg BID as a suspension (n=3) or tablet (n=3) formulation and 200, 400, 800 and 1600 mg as tablet formulation.
property: half-life (h)
Use h as the unit, but write only the number.

The compound listed as CCN(c1cc(-c2ccc(CN3CCOCC3)cc2)cc(C(=O)NCc2c(C)cc(C)[nH]c2=O)c1C)C1CCOCC1 has a reported half-life of 3.81

====

# runDescription: clinical
# runParameters: human, in vivo, po, half-life
# Protocol: Blood samples for PK and skin biopsies for PD analysis were collected. PD samples were stained with H3K27me3 specific antibody and percent change from baseline in H3K27Me3 positive cells was determined. PK/PD relationship was analyzed. Tumor assessments were performed every 8 weeks. Doses administered were 100 mg BID as a suspension (n=3) or tablet (n=3) formulation and 200, 400, 800 and 1600 mg as tablet formulation.
property: half-life

The reported half-life of the compound CCN(c1cc(-c2ccc(CN3CCOCC3)cc2)cc(C(=O)NCc2c(C)cc(C)[nH]c2=O)c1C)C1CCOCC1 was ~4 h

====

# runDescription: clinical
# runParameters: human, in vivo, 400 mg, Cmax
property: Cmax (ng/mL)
Provide only the numeric value, understood in ng/mL.

Briefly, Cmax measured for CCN(c1cc(-c2ccc(CN3CCOCC3)cc2)cc(C(=O)NCc2c(C)cc(C)[nH]c2=O)c1C)C1CCOCC1 : 476

====

# runDescription: clinical
# runParameters: human, in vivo, 800 mg, AUC0-12 hr
property: AUC(0-t)

Entry CCN(c1cc(-c2ccc(CN3CCOCC3)cc2)cc(C(=O)NCc2c(C)cc(C)[nH]c2=O)c1C)C1CCOCC1 — recorded AUC(0-t) = 7800 ng·h/mL

====

# runDescription: clinical
# runParameters: human, in vivo, 200 mg, Cmax
property: Cmax (ng/mL)
Expressed in ng/mL, but write only the number.

Quick note, Cmax for CCN(c1cc(-c2ccc(CN3CCOCC3)cc2)cc(C(=O)NCc2c(C)cc(C)[nH]c2=O)c1C)C1CCOCC1 landed at 363

====

# runDescription: clinical
# runParameters: human, in vivo, 1600 mg, t1/2
property: half-life (h)
API: value field is a number in h; no unit string.

Measured half-life, CCN(c1cc(-c2ccc(CN3CCOCC3)cc2)cc(C(=O)NCc2c(C)cc(C)[nH]c2=O)c1C)C1CCOCC1 : 3.67

====

# runDescription: clinical
# runParameters: human, in vivo, 800 mg, Cmax
# Procedure: Blood samples for PK and skin biopsies for PD analysis were collected. PD samples were stained with H3K27me3 specific antibody and percent change from baseline in H3K27Me3 positive cells was determined. PK/PD relationship was analyzed. Tumor assessments were performed every 8 weeks. Doses administered were 100 mg BID as a suspension (n=3) or tablet (n=3) formulation and 200, 400, 800 and 1600 mg as tablet formulation.
property: Cmax (ng/mL)
// note: answer is a bare numeric in ng/mL

Cmax in this record for CCN(c1cc(-c2ccc(CN3CCOCC3)cc2)cc(C(=O)NCc2c(C)cc(C)[nH]c2=O)c1C)C1CCOCC1 : 1730

====

# runDescription: clinical
# runParameters: human, in vivo, 400 mg, Tmax
# Description: Blood samples for PK and skin biopsies for PD analysis were collected. PD samples were stained with H3K27me3 specific antibody and percent change from baseline in H3K27Me3 positive cells was determined. PK/PD relationship was analyzed. Tumor assessments were performed every 8 weeks. Doses administered were 100 mg BID as a suspension (n=3) or tablet (n=3) formulation and 200, 400, 800 and 1600 mg as tablet formulation.
property: Tmax (h)
Dear colleague, please return just the value in h, with no unit written.

# Tmax (molecule: CCN(c1cc(-c2ccc(CN3CCOCC3)cc2)cc(C(=O)NCc2c(C)cc(C)[nH]c2=O)c1C)C1CCOCC1 [EPZ-6438] ) is 2

====

# runDescription: clinical
# runParameters: human, in vivo, mean EPZ-6438 terminal half-life (t½)
property: half-life

Per the record, CCN(c1cc(-c2ccc(CN3CCOCC3)cc2)cc(C(=O)NCc2c(C)cc(C)[nH]c2=O)c1C)C1CCOCC1 [EPZ-6438] has half-life of 180 to 360 min

====

# runDescription: clinical
# runParameters: human, in vivo, 800 mg, Tmax
property: Tmax (h)
// note: answer is a bare numeric in h

The reported Tmax of the molecule CCN(c1cc(-c2ccc(CN3CCOCC3)cc2)cc(C(=O)NCc2c(C)cc(C)[nH]c2=O)c1C)C1CCOCC1 was 2

====

# runDescription: clinical
# runParameters: human, in vivo, 400 mg, AUC0-12 hr
property: AUC(0-t) (µg·h/mL)
Just the number in µg·h/mL, nothing appended.

Short answer for CCN(c1cc(-c2ccc(CN3CCOCC3)cc2)cc(C(=O)NCc2c(C)cc(C)[nH]c2=O)c1C)C1CCOCC1 : AUC(0-t) was 1.72

====

# runDescription: clinical
# runParameters: human, in vivo, 400 mg, t1/2
property: half-life (min)
Give the value in min but do not write min after it.

Note to self: half-life recorded for CCN(c1cc(-c2ccc(CN3CCOCC3)cc2)cc(C(=O)NCc2c(C)cc(C)[nH]c2=O)c1C)C1CCOCC1 [EPZ-6438] was 173

====

# runDescription: clinical
# runParameters: human, in vivo, terminal half-life (t½)
# Protocol: Blood samples for PK and skin biopsies for PD analysis were collected. PD samples were stained with H3K27me3 specific antibody and percent change from baseline in H3K27Me3 positive cells was determined. PK/PD relationship was analyzed. Tumor assessments were performed every 8 weeks. Doses administered were 100 mg BID as a suspension (n=3) or tablet (n=3) formulation and 200, 400, 800 and 1600 mg as tablet formulation.
property: half-life

Value of half-life reported for the molecule CCN(c1cc(-c2ccc(CN3CCOCC3)cc2)cc(C(=O)NCc2c(C)cc(C)[nH]c2=O)c1C)C1CCOCC1 [EPZ-6438] is 3 to 6 h

====

# runDescription: clinical
# runParameters: human, in vivo, 200 mg, t1/2
property: half-life (h)
Entry rule: numbers only, all in h.

Quick note, half-life for CCN(c1cc(-c2ccc(CN3CCOCC3)cc2)cc(C(=O)NCc2c(C)cc(C)[nH]c2=O)c1C)C1CCOCC1 landed at 3.42
